# measurement_description: Plasma and brain concentrations in 4L;C* mice
# Assay type: in vivo, mouse
# experimental_parameters: both sexes, 4L;C* (C57BL/6 J/129SvEV), mouse, brain, ip, 30 mg kg^–1, 4L;C* mice, 30 mg kg^–1 i.p., 1 h after last dose (day 14); read-out: Cb, u (μM) brain unbounded concentration
metric: concentration at 1 h (µM)

[
  {
    "compound": "CC(C)CNC(=O)n1c(=O)oc2cc(C3CCN(C)CC3)ccc21 [22m]",
    "metric": "concentration at 1 h",
    "test_result": 0.77
  }
]

====

# measurement_description: Plasma and brain concentrations in Twitcher mice
# Assay type: in vivo
# experimental_parameters: both sexes, Twitcher (GALC–/−), mouse, brain, ip, 30 mg kg^–1, Twitcher mice, 30 mg kg^–1 i.p., 1 h after last dose (day 20); read-out: Cb (μM) brain concentration
metric: concentration at 1 h (µM)

[
  {
    "molecule": "CC(C)CNC(=O)n1c(=O)oc2cc(C3CCN(C)CC3)ccc21 [22m]",
    "unit_spec": "µM",
    "test_result": 114
  }
]

====

# measurement_description: In vivo pharmacokinetic study in male CD1 mice
# experimental_parameters: mouse, iv, brain, 3 mg kg^–1 i.v.

[
  {
    "compound": "CC(C)CNC(=O)n1c(=O)oc2cc(C3CCN(C)CC3)ccc21 [22m]",
    "Cmax at 24 h, ng/mL": 6440
  }
]

====

# measurement_description: Plasma and brain concentrations in Twitcher mice
# Assay type: in vivo
# experimental_parameters: both sexes, Twitcher (GALC–/−), mouse, plasma, ip, 90 mg kg^–1, Twitcher mice, 90 mg kg^–1 i.p., 1 h after last dose (day 20); read-out: Cp,u (μM) plasma unbounded concentration

[
  {
    "compound": "CC(C)CNC(=O)n1c(=O)oc2cc(C3CCN(C)CC3)ccc21 [22m]",
    "concentration at 1 h, µM": 0.52
  }
]

====

# measurement_description: In vitro plasma stability study
# Format: in vitro ADME
# experimental_parameters: mouse plasma; read-out: m-plasma t1/2
Measured half-life at 2 µM, listed per entry.

[
  {
    "compound": "Cl.O=C(NCCCCc1ccccc1)n1c(=O)oc2cc(C3CCNCC3)ccc21 [22d]",
    "half-life at 2 µM": "60 min"
  },
  {
    "compound": "CN1CCN(c2ccc3c(c2)oc(=O)n3C(=O)NCCCCc2ccccc2)CC1=O [23j]",
    "half-life at 2 µM": "20 min"
  },
  {
    "compound": "CC(C)CNC(=O)n1c(=O)oc2ccc(C3CCN(C)CC3)cc21 [24c]",
    "half-life at 2 µM": "30 min"
  },
  {
    "compound": "O=C(NCCCCc1ccccc1)n1c(=O)oc2cc(C3CCN(CC(F)F)CC3)ccc21 [22r]",
    "half-life at 2 µM": "50 min"
  },
  {
    "compound": "CN1CCC(c2ccc3c(c2)oc(=O)n3C(=O)NCCOCc2ccccc2)CC1 [22j]",
    "half-life at 2 µM": "40 min"
  },
  {
    "compound": "CCN1CCC(c2ccc3c(c2)oc(=O)n3C(=O)NCCCCc2ccccc2)CC1 [22f]",
    "half-life at 2 µM": "50 min"
  },
  {
    "compound": "CC(C)CNC(=O)n1c(=O)oc2c(C3CCN(C)CC3)cccc21",
    "half-life at 2 µM": "40 min"
  },
  {
    "compound": "CN1CCC(c2ccc3c(c2)oc(=O)n3C(=O)NCCCCc2ccccc2)CC1=O (stereo not shown) [22q]",
    "half-life at 2 µM": "36 min"
  },
  {
    "compound": "CCCCCNC(=O)n1c(=O)oc2cc(C3CCN(C)CC3)ccc21 [22k]",
    "half-life at 2 µM": "75 min"
  },
  {
    "compound": "CN1CCC(c2cc3oc(=O)n(C(=O)NCCCCc4ccccc4)c3cc2F)CC1 [22p]",
    "half-life at 2 µM": "20 min"
  },
  {
    "compound": "CN1CCC(c2ccc3c(c2)oc(=O)n3C(=O)NCCCCc2ccccc2)CC1 [22e]",
    "half-life at 2 µM": "50 min"
  },
  {
    "compound": "CC(C)CNC(=O)n1c(=O)oc2cc(C3CCCCN3C)ccc21 (racemic)",
    "half-life at 2 µM": "30 min"
  },
  {
    "compound": "CN1CCC(c2ccc3c(c2)oc(=O)n3C(=O)NCCCCc2ccc(F)cc2)CC1 [22o]",
    "half-life at 2 µM": "20 min"
  },
  {
    "compound": "CN1CCN(c2ccc3c(c2)oc(=O)n3C(=O)NCCCCc2ccccc2)C(=O)C1 [23k]",
    "half-life at 2 µM": "20 min"
  },
  {
    "compound": "CC(C)CNC(=O)n1c(=O)oc2cc(C3CCN(C)CC3)ccc21 [22m]",
    "half-life at 2 µM": "80 min"
  },
  {
    "compound": "CC(=O)N1CCC(c2ccc3c(c2)oc(=O)n3C(=O)NCCCCc2ccccc2)CC1 [22i]",
    "half-life at 2 µM": "30 min"
  },
  {
    "compound": "CC(C)CNC(=O)n1c(=O)oc2cc(C3CCCN(C)C3)ccc21 (racemic)",
    "half-life at 2 µM": "50 min"
  },
  {
    "compound": "Cl.O=C(NCCCCc1ccccc1)n1c(=O)oc2cc(N3CCNCC3)ccc21 [23e]",
    "half-life at 2 µM": "30 min"
  },
  {
    "compound": "CC(C)N1CCC(c2ccc3c(c2)oc(=O)n3C(=O)NCCCCc2ccccc2)CC1 [22g]",
    "half-life at 2 µM": "40 min"
  }
]

====

Measured IC50, listed per entry.
# test_system: UniProt:Q13510
# Sequence (Q13510 22-395): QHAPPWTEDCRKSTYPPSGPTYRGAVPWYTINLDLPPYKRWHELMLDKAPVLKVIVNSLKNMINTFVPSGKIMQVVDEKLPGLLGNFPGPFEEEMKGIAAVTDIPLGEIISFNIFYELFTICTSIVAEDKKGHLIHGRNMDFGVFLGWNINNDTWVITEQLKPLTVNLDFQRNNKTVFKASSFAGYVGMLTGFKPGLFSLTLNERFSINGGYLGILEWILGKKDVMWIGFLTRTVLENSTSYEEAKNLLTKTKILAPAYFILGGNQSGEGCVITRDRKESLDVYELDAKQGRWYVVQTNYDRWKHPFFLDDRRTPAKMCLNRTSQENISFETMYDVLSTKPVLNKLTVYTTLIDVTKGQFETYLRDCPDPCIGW
# measurement_description: Fluorogenic hAC assay on hAC-enriched lysate of HEK293 cells
# Assay type: biochemical
# Parameters: expressed in transfected cells
# experimental_parameters: hAC expressed in HEK-293 cells; read-out: hAC IC50 (μM)±SD
metric: IC50 (µM)

[
  {
    "compound": "CCN1CCN(c2ccc3c(c2)oc(=O)n3C(=O)NCCCCc2ccccc2)CC1 [23g]",
    "test_system": "UniProt:Q13510",
    "test_result": 0.056
  },
  {
    "compound": "O=C(NCCCCc1ccccc1)n1c(=O)oc2cc(N3CCS(=O)(=O)CC3)ccc21 [23c]",
    "test_system": "UniProt:Q13510",
    "test_result": 0.16
  },
  {
    "compound": "Cl.O=C(NCCCCc1ccccc1)n1c(=O)oc2cc(N3CCNCC3)ccc21 [23e]",
    "test_system": "UniProt:Q13510",
    "test_result": 0.363
  },
  {
    "compound": "CCN1CCC(c2ccc3c(c2)oc(=O)n3C(=O)NCCCCc2ccccc2)CC1 [22f]",
    "test_system": "UniProt:Q13510",
    "test_result": 0.092
  },
  {
    "compound": "O=C(NCCCCc1ccccc1)n1c(=O)oc2cc(N3CCOCC3)ccc21 [23b]",
    "test_system": "UniProt:Q13510",
    "test_result": 0.192
  },
  {
    "compound": "CN1CCN(c2ccc3c(c2)oc(=O)n3C(=O)NCCCCc2ccccc2)CC1 [23f]",
    "test_system": "UniProt:Q13510",
    "test_result": 0.116
  },
  {
    "compound": "Cl.O=C(NCCCCc1ccccc1)n1c(=O)oc2cc(C3CCNCC3)ccc21 [22d]",
    "test_system": "UniProt:Q13510",
    "test_result": 0.134
  },
  {
    "compound": "CC(C)N1CCC(c2ccc3c(c2)oc(=O)n3C(=O)NCCCCc2ccccc2)CC1 [22g]",
    "test_system": "UniProt:Q13510",
    "test_result": 0.094
  },
  {
    "compound": "CCCCCNC(=O)n1c(=O)oc2cc(C3CCN(C)CC3)ccc21 [22k]",
    "test_system": "UniProt:Q13510",
    "test_result": 0.396
  }
]

====

Measured log10(IC50), listed per entry.
# test_system: UniProtKB Q13510
# measurement_description: Fluorogenic hAC assay on hAC-enriched lysate of HEK293 cells
# Assay type: biochemical
# Set-up: expressed in transfected cells
# experimental_parameters: hAC expressed in HEK-293 cells; read-out: hAC IC50 (μM)±SD
metric: log10(IC50) (log10 of the value in µM)

[
  {
    "compound": "CN1CCN(c2ccc3c(c2)oc(=O)n3C(=O)NCCCCc2ccccc2)CC1=O [23j]",
    "test_system": "UniProtKB Q13510",
    "log10(IC50)": -1.04
  },
  {
    "compound": "CC(C)CNC(=O)n1c(=O)oc2cc(C3CCCN(C)C3)ccc21 (racemic) [compound 27]",
    "test_system": "UniProtKB Q13510",
    "log10(IC50)": 0.24
  },
  {
    "compound": "CN1CCN(c2ccc3c(c2)oc(=O)n3C(=O)NCCCCc2ccccc2)C(=O)C1 [23k]",
    "test_system": "UniProtKB Q13510",
    "log10(IC50)": -1.28
  },
  {
    "compound": "CCC(C)NC(=O)n1c(=O)oc2cc(C3CCN(C)CC3)ccc21 (stereo not drawn) [22n]",
    "test_system": "UniProtKB Q13510",
    "log10(IC50)": 0.32
  },
  {
    "compound": "CC(C)N1CCN(c2ccc3c(c2)oc(=O)n3C(=O)NCCCCc2ccccc2)CC1 [23h]",
    "test_system": "UniProtKB Q13510",
    "log10(IC50)": -0.68
  },
  {
    "compound": "O=C(NCCCCc1ccccc1)n1c(=O)oc2cc(N3CCCCC3)ccc21 [23a]",
    "test_system": "UniProtKB Q13510",
    "log10(IC50)": -1.10
  },
  {
    "compound": "CN1CCC(c2ccc3c(c2)oc(=O)n3C(=O)NCCCCc2ccccc2)CC1=O (stereo not drawn) [22q]",
    "test_system": "UniProtKB Q13510",
    "log10(IC50)": -0.98
  },
  {
    "compound": "O=C(NCCCCc1ccccc1)n1c(=O)oc2cc(C3CCN(CC(F)F)CC3)ccc21 [22r]",
    "test_system": "UniProtKB Q13510",
    "log10(IC50)": -1.02
  }
]
